Entries and their GI50
system: RXF 631; assay: NCI tumour cell line growth inhibition, 48 h
Activity calls are given as the source filed them. Rule as the data show it: active = GI50 up to about 1.1 µM and inactive = higher.

# count of solved cases: 3
* O=C(Cn1ccnc1[N+](=O)[O-])NCc1ccc(F)cc1 | > 100 µM (inactive)
* C=CC(=O)Nc1ccccc1CC(c1c[nH]c2ccccc12)c1c[nH]c2ccccc12 | 16.7 µM (inactive)
* Nc1ncnc2c1ncn2COC/C=C/I | > 100 µM (inactive)

Next item in the queue.
Record CN(C)CCNC(=O)c1cccc2nc3c(ccc4ccccc43)nc12 , field GI50: 1.02 µM (active)

====

test system: HOP-62; assay: NCI tumour cell line growth inhibition, 48 h
Active and inactive are the calls of the source. Cut-off read from the data, not from the text of the source: active = GI50 up to about 1.1 µM and inactive = higher.
Give your call using only these classes: 1 (active), -1 (inactive)

- COc1c(C)c(OC)c(C(=O)CC(C)C)c(OC)c1C: -1
- O=C(O)COc1cc(-c2ccccc2)nc2cc(F)ccc12: -1

Q. Give the logged outcome of this assay for the following compound: c1ccc(NN=C(c2ccccn2)c2ccccn2)nc1
A. 1

Q. Give the logged outcome of this assay for the following compound: O=c1c(C(c2ccc3ccccc3c2)c2c(O)oc3cc(O)ccc3c2=O)c(O)oc2cc(O)ccc12
A. -1

====

test system: A549; test: NCI tumour cell line growth inhibition, 48 h
Activity calls are given as the source filed them. No stated cut-off is given here; in the data, active = GI50 up to about 1.1 µM and inactive = higher.
Entries and their GI50

# count of solved cases: 5
• CN(C)CC1CC/C(=C\c2ccc(Cl)c(Cl)c2)C1=O (stereo not given) = > 100 µM (inactive)
• Cc1c(S(=O)(=O)N/C(=N\O)Nc2ccc(Cl)c(Cl)c2)sc2ccc(Cl)cc12 = 24.7 µM (inactive)
• O=[N+]([O-])c1ccc(NN=C2c3ccccc3Cc3ccccc32)c([N+](=O)[O-])c1 = > 21.1 µM (inactive)
• CC(C)(C)n1nc(C2CC2)cc1NC(=O)Nc1ccc(Cl)cc1 = > 100 µM (inactive)
• Cc1nc2ccccc2c(=O)n1/N=C(\N=N\c1ccc(Cl)cc1)c1ccc(N(C)C)cc1 = > 100 µM (inactive)

Field GI50 (system: A549) for entry CS(=O)(=O)OCC(CCl)(CCl)CCl = > 100 µM (inactive)

Field GI50 (system: A549) for entry CCOC(=O)c1cc(=O)c2ccnc3c2n1CCS3 = 69.8 µM (inactive)

Field GI50 (system: A549) for entry CC(C)C1CO[C@]2(C)CCC(=O)N12 (stereo not given in full) = > 100 µM (inactive)

Field GI50 (system: A549) for entry N#CCN(Cc1ccccc1)[C@@H]1CCC[C@]1(O)C#Cc1ccc2c(c1)OCO2 = 18.5 µM (inactive)

Field GI50 (system: A549) for entry N=C(N)NS(=O)(=O)c1ccc(NC(=O)c2ccc3nc4ccccc4c(N)c3c2)cc1 = > 100 µM (inactive)

====

system: DU-145; test: NCI tumour cell line growth inhibition, 48 h
The source made the active and inactive calls. Rule as the data show it: active = GI50 up to about 1.1 µM and inactive = higher.
Give your call using only these classes: True = active, False = inactive

* BrC1(c2ccccc2)C[n+]2c(-c3ccccc3)cc(-c3ccccc3)cc2-c2ccccc21 (stereo unspecified) | True
* CNc1nc2n(CCO)c(-c3ccccc3)c(-c3ccccc3)nc-2c(=O)n1 | False
* O=C(c1ccc(Cl)cc1)C(O)c1ccc(Cl)cc1 (stereo unspecified) | False

Q. Give the logged outcome of this assay for the following compound: Oc1nc2c(c(-c3ccc(F)cc3)n1)COC/C2=C\c1ccc(F)cc1
A. False

Q. Give the logged outcome of this assay for the following compound: O=CNc1ccc2c(c1)C(=O)c1ccccc1-2
A. False

Q. Give the logged outcome of this assay for the following compound: CCOC(=O)c1cc(=O)c2ccnc3c2n1CCS3
A. False

====

test system: UO-31; test: NCI tumour cell line growth inhibition, 48 h
Active and inactive are the calls of the source. Rule as the data show it: active = GI50 up to about 1.1 µM and inactive = higher.
Measured parameter: GI50

# count of solved cases: 2
• CCCCCCNC(=O)CCN(C(=O)O)S(=O)(=O)c1ccc(NC(=O)c2ccccc2)cc1 = > 100 µM (inactive)
• COC(=O)c1cc(CNCCc2c[nH]c3ccccc23)on1 = > 100 µM (inactive)

Record Cn1c(=O)c2[nH]cnc2n(CC(N)=O)c1=O , field GI50: > 100 µM (inactive)

Record C=CCNC(=O)NC(=O)CSC1=NC(=O)C2(NN1)c1ccccc1-c1ccccc12 , field GI50: 9.62 µM (inactive)

Record COc1ccc2c(C=O)c3n(c(=O)c2c1OC)CCc1cc2c(cc1-3)OCO2 , field GI50: 51.8 µM (inactive)

Record O=C(C=P(c1ccccc1)(c1ccccc1)c1ccccc1)c1ccc(-c2cccc([N+](=O)[O-])c2)cc1 , field GI50: 2.09 µM (inactive)

Record CN(C)Cc1cc(/C=C/C(=O)c2ccc(Cl)c(Cl)c2)cc(CN(C)C)c1O , field GI50: 6.46 µM (inactive)

Record CC[P+](C#Cc1ccccc1)(c1ccccc1)c1ccccc1 , field GI50: 6.93 µM (inactive)

Record CCCCCCCCCCCCCCCCNCCCN(C)CCCN , field GI50: 17.3 µM (inactive)

Record Cc1ccc2nc(-c3ccc(N)c(Br)c3)sc2c1 , field GI50: 5.27 µM (inactive)

Record CC1=C(C(=O)OCCO[N+](=O)[O-])C(c2ccccc2C(F)(F)F)C(C(=O)OC(C)C)=C(C)N1 (stereo unspecified) , field GI50: 11.3 µM (inactive)

====

system: SN12C; test: NCI tumour cell line growth inhibition, 48 h
The source made the active and inactive calls. No stated cut-off is given here; in the data, active = GI50 up to about 1.1 µM and inactive = higher. Where a SMILES comes first, the peptide text is derived from it. [ ]: non-standard residue; d: D form. The star is where a group is joined. Cbz = O=C(OCc1ccccc1)*; Aib = CC(C)(N)C(=O)O; OBn = c1ccc(CO*)cc1
Give your call using only these classes: active, inactive

Reference set, count: 5
• CCOC1NC(=O)Oc2ccccc21 (stereo unspecified) = inactive
• COc1cc2c3c(n(C)c(=O)c2cc1OC)-c1cc2c(cc1/C3=C\CCCI)OCO2 = inactive
• [N-]=[N+]=CC(=O)OC(CCl)CCl = inactive
• COc1cccc(-c2cc(C(=O)Nc3ccc(Cl)cc3)nc(N)n2)c1 = inactive
• Cc1ccc(NC(=O)CC/C(CC(=O)C(C)(C)C)=N/NC(=O)C[N+](C)(C)C)cc1C = inactive

Q. Give the logged outcome of this assay for the following compound: CC(NC(=O)C(C)(C)NC(=O)C(CC(=O)OCc1ccccc1)NC(=O)OCc1ccccc1)C(N)=O (stereo unspecified) (Cbz-Asp(OBn)-[Aib]-Ala-NH2; configuration not given here)
A. inactive

Q. Give the logged outcome of this assay for the following compound: C[C@@]12CC[C@H]3[C@@H]4CCC(=O)N[C@@]4(C)CC[C@@H]3[C@@]1(C)CC[C@H](OC(=O)Cc1ccc(N(CCCl)CCCl)cc1)C2
A. inactive

Q. Give the logged outcome of this assay for the following compound: OCC(O)C(O)C(O)c1nn(-c2ccccc2)c2nc3cc(Cl)c(Cl)cc3nc12 (stereo unspecified)
A. inactive

Q. Give the logged outcome of this assay for the following compound: CC(=O)NC1C(OCc2ccccc2)OC(CO)C(O)C1OCC(=O)N[C@@H](C)C(=O)N[C@H](CCC(=O)NCCCCNc1c2ccccc2nc2cccc([N+](=O)[O-])c12)C(N)=O (stereo partly specified)
A. inactive

Q. Give the logged outcome of this assay for the following compound: Cc1ccc([Se](=C(C(=O)c2ccccc2)C(=O)c2ccccc2)c2ccc(C)cc2)cc1
A. inactive

Q. Give the logged outcome of this assay for the following compound: O=C1C2C3C=CC(C2C(=O)N1CN1CCSCC1)C1C2C(=O)N(CN4CCSCC4)C(=O)C2C31 (stereo unspecified)
A. inactive

Q. Give the logged outcome of this assay for the following compound: COP(C)(=O)C(Cc1c[nH]c2ccccc12)NC(=O)OCc1ccccc1 (stereo unspecified)
A. inactive

Q. Give the logged outcome of this assay for the following compound: O=c1c2cc([N+](=O)[O-])cnc2sn1-c1ccc(Br)cc1
A. inactive

Q. Give the logged outcome of this assay for the following compound: O=C1C2CCCCC2C(=O)N1n1c(-c2ccccc2)n[nH]c1=O (stereo unspecified)
A. inactive

Q. Give the logged outcome of this assay for the following compound: COC1/C=C/OC2(C)Oc3c(C)c(O)c4c(c3C2=O)C(=O)C=C(NC(=O)/C(C)=C\C=C\C(C)C(OC=O)C(C)C(O)C(C)C(OC(C)=O)C1C)C4=O (stereo unspecified)
A. inactive

Q. Give the logged outcome of this assay for the following compound: CCOC(=O)C(NC(=O)c1ccccc1)(Nc1ccc(S(=O)(=O)Nc2cc(C)on2)cc1)C(F)(F)F (stereo unspecified)
A. inactive

Q. Give the logged outcome of this assay for the following compound: c1ccc2c(Nc3ncco3)cccc2c1
A. inactive

Q. Give the logged outcome of this assay for the following compound: O=[N+]([O-])c1ccc(NN=C2c3ccccc3Cc3ccccc32)c([N+](=O)[O-])c1
A. inactive

Q. Give the logged outcome of this assay for the following compound: O=C(Cc1ccccc1)NN1C(=O)C(Cl)C1c1ccccc1 (stereo unspecified)
A. inactive

Q. Give the logged outcome of this assay for the following compound: CCN(CC)CC(C(=O)Nc1c(C)cccc1C)/C(C)=N\NC(=O)C[N+](C)(C)C (stereo unspecified)
A. inactive

Q. Give the logged outcome of this assay for the following compound: CCOC(=O)/C=C(\N=P(c1ccccc1)(c1ccccc1)c1ccccc1)C(F)(F)C(F)(F)C(F)(F)C(F)(F)C(F)(F)F
A. inactive
